biological target: Leucine-rich repeat serine/threonine-protein kinase 2 [G2019S] (Homo sapiens, UniProt Q5S007, G2019S); experiment: LRRK2 Assay
Sequence (Q5S007 whole entry G2019S): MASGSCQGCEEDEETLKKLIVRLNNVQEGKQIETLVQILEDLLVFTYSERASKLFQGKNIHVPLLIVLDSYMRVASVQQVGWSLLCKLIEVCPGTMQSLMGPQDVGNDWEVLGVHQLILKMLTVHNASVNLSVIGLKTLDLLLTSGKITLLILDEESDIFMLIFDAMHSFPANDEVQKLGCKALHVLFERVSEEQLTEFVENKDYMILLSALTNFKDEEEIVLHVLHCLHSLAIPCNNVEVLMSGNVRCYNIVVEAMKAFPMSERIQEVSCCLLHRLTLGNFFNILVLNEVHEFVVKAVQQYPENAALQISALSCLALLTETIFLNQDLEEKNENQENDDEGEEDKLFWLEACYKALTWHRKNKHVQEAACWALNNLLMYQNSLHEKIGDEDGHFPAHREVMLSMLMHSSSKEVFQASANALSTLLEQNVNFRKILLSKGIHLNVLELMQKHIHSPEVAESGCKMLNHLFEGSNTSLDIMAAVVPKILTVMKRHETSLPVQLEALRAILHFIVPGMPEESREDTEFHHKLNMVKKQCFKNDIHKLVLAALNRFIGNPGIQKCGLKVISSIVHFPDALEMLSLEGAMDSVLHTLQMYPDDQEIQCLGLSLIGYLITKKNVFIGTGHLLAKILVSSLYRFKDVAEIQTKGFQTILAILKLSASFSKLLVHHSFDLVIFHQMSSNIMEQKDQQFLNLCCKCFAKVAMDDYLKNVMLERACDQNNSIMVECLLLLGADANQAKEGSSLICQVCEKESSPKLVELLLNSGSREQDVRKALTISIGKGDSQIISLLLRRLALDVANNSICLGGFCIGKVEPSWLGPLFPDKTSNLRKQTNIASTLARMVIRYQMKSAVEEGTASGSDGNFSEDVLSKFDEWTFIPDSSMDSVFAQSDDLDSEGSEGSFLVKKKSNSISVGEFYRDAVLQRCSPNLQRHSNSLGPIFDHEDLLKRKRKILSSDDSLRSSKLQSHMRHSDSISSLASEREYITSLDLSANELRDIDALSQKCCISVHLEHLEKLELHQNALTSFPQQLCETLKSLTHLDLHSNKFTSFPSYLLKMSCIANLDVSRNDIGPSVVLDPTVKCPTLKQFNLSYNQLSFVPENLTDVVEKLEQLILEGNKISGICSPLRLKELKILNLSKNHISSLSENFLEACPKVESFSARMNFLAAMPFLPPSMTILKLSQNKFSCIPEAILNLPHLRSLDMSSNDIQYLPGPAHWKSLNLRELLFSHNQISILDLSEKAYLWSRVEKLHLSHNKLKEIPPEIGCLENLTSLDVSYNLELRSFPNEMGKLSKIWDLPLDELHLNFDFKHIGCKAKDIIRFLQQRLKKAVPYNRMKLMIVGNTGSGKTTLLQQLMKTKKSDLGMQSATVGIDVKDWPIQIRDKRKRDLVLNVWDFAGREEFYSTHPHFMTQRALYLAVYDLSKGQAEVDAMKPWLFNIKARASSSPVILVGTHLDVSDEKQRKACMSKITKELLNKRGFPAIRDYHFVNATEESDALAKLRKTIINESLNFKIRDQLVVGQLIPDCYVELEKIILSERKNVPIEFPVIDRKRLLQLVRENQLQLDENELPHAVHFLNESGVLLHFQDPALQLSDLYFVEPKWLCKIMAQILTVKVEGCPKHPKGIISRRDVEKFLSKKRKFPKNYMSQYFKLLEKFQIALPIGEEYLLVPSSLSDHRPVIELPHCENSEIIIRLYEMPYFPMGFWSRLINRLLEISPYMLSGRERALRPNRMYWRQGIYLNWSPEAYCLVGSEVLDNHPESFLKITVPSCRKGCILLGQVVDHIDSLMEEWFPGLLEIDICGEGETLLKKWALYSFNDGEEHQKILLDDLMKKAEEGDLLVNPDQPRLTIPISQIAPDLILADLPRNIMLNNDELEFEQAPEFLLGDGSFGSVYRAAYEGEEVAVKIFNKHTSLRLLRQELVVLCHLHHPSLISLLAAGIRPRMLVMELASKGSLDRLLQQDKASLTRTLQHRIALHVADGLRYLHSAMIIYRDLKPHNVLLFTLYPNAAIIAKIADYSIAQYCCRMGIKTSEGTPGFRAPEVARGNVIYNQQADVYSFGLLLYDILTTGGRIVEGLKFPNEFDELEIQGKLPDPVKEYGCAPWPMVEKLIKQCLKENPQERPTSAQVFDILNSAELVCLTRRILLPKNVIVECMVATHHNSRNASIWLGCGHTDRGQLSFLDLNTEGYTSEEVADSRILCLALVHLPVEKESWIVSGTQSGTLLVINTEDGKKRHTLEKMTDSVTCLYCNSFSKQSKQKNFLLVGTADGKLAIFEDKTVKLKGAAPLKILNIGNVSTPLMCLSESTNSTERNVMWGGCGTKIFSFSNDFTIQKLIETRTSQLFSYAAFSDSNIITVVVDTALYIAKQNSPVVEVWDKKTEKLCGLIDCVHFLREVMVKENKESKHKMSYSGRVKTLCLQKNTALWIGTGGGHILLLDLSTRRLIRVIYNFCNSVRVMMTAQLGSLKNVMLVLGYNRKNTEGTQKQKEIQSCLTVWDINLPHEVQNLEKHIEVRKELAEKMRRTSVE
recorded-metric: pIC50
Answers are plain numbers, as −log10 of the molar value.

[in] I am curious: what pIC50 value has been reported for C[C@@H]1CC(n2c(C3CC(C)(F)C3)nc3cnc4ccc(F)cc4c32)CCO1 (stereo partly specified) [US11161844, Example 31] ?
[out] 7.80
